Parameter half-life: see the listing below.
Experiment: in vivo
Format: in vivo
Settings: rat, in vivo, iv, 2 mg/kg, i.v. 2 mg/kg, mean n=3, read-out: t1/2
Report as a plain number; the unit h is understood.

Give half-life for the following molecule: CC(C)c1cc(-c2ccc(Cl)c(F)c2)cc(C(C)C)c1O
1.52

Supply half-life value. Item: CC(C)c1cc(-c2ccc(Cl)cc2)cc(C(C)C)c1O
1.61

* * *

Assay: in vivo
Type: in vivo
Details: rat, plasma, po, 8 mg/kg, p.o. 8 mg/kg, mean n=3, read-out: CL/F
Method: […] The pharmacokinetic parameters for study compounds were calculated by WinNonlin Pro (Pharsight Corp, CA) using standard noncompartmental methods. […] The elimination phase half-life (t1/2) was calculated by least-squares regression analysis of the terminal linear part of the log concentration-time curve. […] The mean residence time (MRT) representing the average amount of time a compound remains in a compartment or system was calculated extrapolating the drug concentration profile to infinity. […]
measure: CL/F (mL/min/kg)
Provide the reading as a plain figure in mL/min/kg.

Answer with the recorded CL/F for the compound listed here: CC(C)c1cc(Cl)cc(C(C)C)c1O [4-Cl-propofol, 4-Chloropropofol]
201
